For each of the molecules below, state its normalized growth.
PROTOCOL TEXT: chemical genetic growth profiling, strain panel (AID 1159580);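 further: tested at 20 µM; growth read once vehicle control cultures reached saturation at 30 °C; 1 = growth at the plate median or of vehicle wells; lower values mean less growth of the strain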
TEST CONDITIONS: S. cerevisiae deletion strains, growth OD, locus YLR039C, strain RIC1, active compounds read low
Among all 5,500 compounds or so, about 2,000 (36%) were called active. Not shown: some 18% with an inconclusive outcome. The list shows a part of the results.
One number for each entry.

MOLECULE	READOUT TYPE	REPORTED
CC(=O)O[C@H]1C[C@@H](OC(C)=O)C(C)(C)C2CC(=O)[C@]3(C)C(CC[C@@]4(C)[C@H](c5ccoc5)OC(=O)[C@H]5O[C@]543)[C@]21C (stereo partly specified)	normalized growth	1
N#C/C(=C\c1cccc(O)c1)C(=O)O	normalized growth	1.01
CC[C@H](CCC(C)[C@H]1CCC2C3CCC4C[C@@H](O)CC[C@]4(C)C3CC[C@@]21C)C(C)C (stereo partly specified)	normalized growth	0.995
Cc1c(S(=O)(=O)c2ccc(Cl)cc2)csc1S(=O)(=O)N/N=C\c1c(Cl)cccc1Cl	normalized growth	1
CC1(C)C(=O)C=C[C@@]2(C)C1CC(=O)[C@@]1(C)C3=CC(=O)O[C@@H](c4ccoc4)[C@]3(C)CCC12 (stereo partly specified)	normalized growth	1.02

Record normalized growth for all entries; do not skip any.
1. CC(=O)Nc1ccc(C(F)(F)F)cc1Br
2. Nc1cc(-c2ccncc2)c[nH]c1=O
3. C[C@]12C=CC(=O)C=C1CCC1C3C[C@@H](O)[C@](O)(C(=O)CO)[C@@]3(C)C[C@H](O)[C@@]12F (stereo partly specified)

Reply text:
1: 1; 2: 0.981; 3: 1.01

Record normalized growth for all entries; do not skip any.
1. Cc1c(S(=O)(=O)c2ccc(Cl)cc2)csc1C(=O)Nc1ccc(N2CCOCC2)c(Cl)c1
2. O=C1CSC(c2ccc(Cl)c(Cl)c2)N1c1ccc(F)cc1 (stereo unspecified)
3. COc1ccc(-n2c(-c3ccc(C)cc3)csc2=N)cc1
4. COc1cc2c(cc1/C=C/C(=O)c1cc(OC)c(OC)cc1OC)OCO2
5. CCN(CC)CCOC(=O)C(c1ccccc1)c1ccccc1
6. O=C(Nc1ccccc1)NC1CCCC1
7. C[C@H](CCC(=O)O)[C@H]1CCC2C3C(CC[C@@]21C)[C@@]1(C)CC[C@@H](O)C[C@H]1C[C@H]3O (stereo partly specified)

Reply text:
1. 0.992
2. 0.994
3. 1.01
4. 0.994
5. 1
6. 1.01
7. 1.02

Inquiry: Which normalized growth value belongs to Cc1cc(O)c(C=O)c2c1C(=O)Oc1c(C)c(O)c3c(c1O2)C(O)OC3=O (stereo unspecified) ?
Reply text: 0.996

Sourced from PubChem BioAssay AID1159580
